Can you tell me selectivity ratio for the items I'm about to list?
method.summary: Therapeutic index, ratio of HC10 for mouse RBC to IC50 for cytotoxicity against RG cells (unknown origin)
Type: toxicity, cell-based
condition: mouse RBC and RG cells, read-out: TI
Residues, ends and D or L forms follow the SMILES beside them.

What selectivity ratio value was documented for this compound, CC(C)C[C@H](NC(=O)[C@H](CC(C)C)NC(=O)[C@H](CCCCN)NC(=O)[C@H](CCCCN)NC(=O)[C@H](CC(C)C)NC(=O)[C@H](CC(C)C)NC(=O)[C@H](CCCCN)NC(=O)[C@H](CCCCN)NC(=O)[C@H](CCC(=O)O)NC(=O)[C@H](CC(C)C)NC(=O)[C@H](CCCCN)NC(=O)[C@H](CCCCN)NC(=O)[C@H](CC(C)C)NC(=O)[C@@H](N)CC(C)C)C(N)=O (H-LLKKLEKKLLKKLL-NH2) ?
1.2

What selectivity ratio value was documented for this compound, CC(C)C[C@H](NC(=O)[C@H](CC(C)C)NC(=O)[C@H](CCCCN)NC(=O)[C@H](CCCCN)NC(=O)[C@H](CC(C)C)NC(=O)[C@H](CC(C)C)NC(=O)[C@H](CCCCN)NC(=O)[C@H](CCCCN)NC(=O)[C@H](CC(C)C)NC(=O)[C@H](CC(C)C)NC(=O)[C@H](CCCCN)NC(=O)[C@H](CCCCN)NC(=O)[C@H](CC(C)C)NC(=O)[C@@H](N)CC(C)C)C(N)=O (H-LLKKLLKKLLKKLL-NH2) ?
1.69

---

method.summary: Cytotoxicity against HK-2 cells assessed as inhibition of cell growth incubated for 1 hr by MTT assay
Format: toxicity, cell-based
condition: human
Non-standard residues stand in square brackets, D forms with d. Residues, ends and D or L forms follow the SMILES beside them. Asu = N[C@@H](CCCCCC(=O)O)C(=O)O
property.label: IC50 at 1 h (µM)
Give the value in µM but do not write µM after it.

What IC50 at 1 h value was documented for this molecule, CC(C)C[C@H](NC(=O)[C@H](CC(C)C)NC(=O)[C@H](CCCCN)NC(=O)[C@H](CCCCN)NC(=O)[C@H](CC(C)C)NC(=O)[C@H](CC(C)C)NC(=O)[C@H](CCCCN)NC(=O)[C@H](CCCCN)NC(=O)[C@H](CC(C)C)NC(=O)[C@H](CCC(=O)O)NC(=O)[C@H](CCCCN)NC(=O)[C@H](CCCCN)NC(=O)[C@H](CC(C)C)NC(=O)[C@@H](N)CC(C)C)C(N)=O (H-LLKKELKKLLKKLL-NH2) ?
37.3

What IC50 at 1 h value was documented for this molecule, CC(C)C[C@H](NC(=O)[C@H](CC(C)C)NC(=O)[C@H](CCCCN)NC(=O)[C@H](CCCCN)NC(=O)[C@H](CC(C)C)NC(=O)[C@H](CC(C)C)NC(=O)[C@H](CCCCN)NC(=O)[C@H](CCCCN)NC(=O)[C@H](CC(C)C)NC(=O)[C@H](CC(C)C)NC(=O)[C@H](CCCCN)NC(=O)[C@H](CCCCN)NC(=O)[C@H](CCC(=O)O)NC(=O)[C@@H](N)CC(C)C)C(N)=O (H-LEKKLLKKLLKKLL-NH2) ?
59.2

What IC50 at 1 h value was documented for this molecule, CC(C)C[C@H](NC(=O)[C@H](CCCCN)NC(=O)[C@H](CCCCN)NC(=O)[C@H](CC(C)C)NC(=O)[C@H](CC(C)C)NC(=O)[C@H](CCCCN)NC(=O)[C@H](CCCCN)NC(=O)[C@H](CC(C)C)NC(=O)[C@H](CC(C)C)NC(=O)[C@H](CCCCN)NC(=O)[C@H](CCCCN)NC(=O)[C@H](CC(C)C)NC(=O)[C@@H](N)CC(C)C)C(=O)N[C@@H](CCCCCC(=O)O)C(N)=O (H-LLKKLLKKLLKKL[Asu]-NH2) ?
15.3

Data provenance: ChEMBL document CHEMBL5584231
